Data origin: patent US7425572B2

The entries below are paired with their reported Emax.
Target: 5-HT2 receptor (A7r5 rat vascular smooth muscle cells) (Rattus norvegicus)
Construct: endogenous in cells; host or cells: A7r5 rat vascular smooth muscle cells
Sequence (P14842 whole entry): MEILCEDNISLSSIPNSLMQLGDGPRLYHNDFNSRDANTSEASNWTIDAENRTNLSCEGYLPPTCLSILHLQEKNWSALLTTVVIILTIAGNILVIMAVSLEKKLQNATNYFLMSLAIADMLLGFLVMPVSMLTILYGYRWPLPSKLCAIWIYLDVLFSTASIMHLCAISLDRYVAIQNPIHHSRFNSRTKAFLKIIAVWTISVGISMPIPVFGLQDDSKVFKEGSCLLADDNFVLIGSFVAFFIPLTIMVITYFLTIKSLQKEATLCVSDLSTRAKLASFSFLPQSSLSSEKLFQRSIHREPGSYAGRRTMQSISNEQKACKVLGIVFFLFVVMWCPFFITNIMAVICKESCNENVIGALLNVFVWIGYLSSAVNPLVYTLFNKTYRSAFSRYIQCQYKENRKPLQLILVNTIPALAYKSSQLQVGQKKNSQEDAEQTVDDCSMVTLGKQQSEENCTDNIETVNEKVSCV
Assay: 5-HT2 functional assay: [Ca2+]i mobilization (FLIPR)
Format: cell-based
Conditions: percentage of maximum 5-HT-induced response, read-out: Efficacy (Emax, %)
Counter-ions that a name gives are not always drawn.
assay.endpoint: Emax

molecule="C[C@H](N)Cn1ncc2ccc3c(c21)OCCO3 [Example 3, hydrochloride]" assay_endpoint=Emax observed=92%
molecule="C[C@H](N)Cn1ncc2ccc3c(c21)O[C@@H](CN)CO3 [Example 8, hydrochloride]" assay_endpoint=Emax observed=54%
molecule="C[C@H](N)Cn1ncc2ccc3c(c21)O[C@@H](CNS(C)(=O)=O)CO3.Cl [Example 4, hydrochloride]" assay_endpoint=Emax observed=81%
molecule="C[C@H](N)Cn1ncc2ccc3c(c21)O[C@@H](CO)CO3 [Example 1, hydrochloride]" assay_endpoint=Emax observed=39%
molecule="COC(=O)NC[C@@H]1COc2ccc3cnn(C[C@H](C)N)c3c2O1 [Example 9, hydrochloride]" assay_endpoint=Emax observed=44%
molecule="CCS(=O)(=O)NC[C@H]1COc2ccc3cnn(C[C@H](C)N)c3c2O1.Cl [Example 5, hydrochloride]" assay_endpoint=Emax observed=82%
molecule="COC(=O)NC[C@H]1COc2ccc3cnn(C[C@H](C)N)c3c2O1.Cl [Example 7, hydrochloride]" assay_endpoint=Emax observed=66%
molecule="C[C@H](N)Cn1ncc2ccc3c(c21)O[C@H](CO)CO3.Cl [Example 2, hydrochloride]" assay_endpoint=Emax observed=77%
molecule="CC(C)C(=O)NC[C@H]1COc2ccc3cnn(C[C@H](C)N)c3c2O1 [Example 6, hydrochloride]" assay_endpoint=Emax observed=59%
